Source: patent US7799775B2

molecular target: human 5-HT1A receptor (Homo sapiens); construct: purchased Packard Bioscience; host or cells: CHO cells (membrane preparation); test: Affinity measurement of the compounds to human 5-HT1A receptor (in vitro), [3H]8-OH-DPAT binding; conditions: test compound 100 nmols/L; [3H]8-OH-DPAT 0.25 nmols/L; CHO cell membrane expressing human 5-HT1A receptor; read-out: Percent Inhibition (%) on Each Receptor's Binding at 10^−7M, 5-HT1A
Sequence (P08908 whole entry): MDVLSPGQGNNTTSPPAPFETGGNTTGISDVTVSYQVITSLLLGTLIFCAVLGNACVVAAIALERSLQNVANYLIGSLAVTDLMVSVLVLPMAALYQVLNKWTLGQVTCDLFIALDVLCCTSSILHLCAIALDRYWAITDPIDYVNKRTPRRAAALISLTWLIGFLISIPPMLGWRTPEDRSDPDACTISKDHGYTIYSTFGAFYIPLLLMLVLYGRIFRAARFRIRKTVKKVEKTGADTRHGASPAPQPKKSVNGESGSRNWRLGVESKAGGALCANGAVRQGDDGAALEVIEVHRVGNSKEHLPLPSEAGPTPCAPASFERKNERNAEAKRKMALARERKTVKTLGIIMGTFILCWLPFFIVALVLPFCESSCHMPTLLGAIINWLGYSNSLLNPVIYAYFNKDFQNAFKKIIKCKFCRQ
molecules and their reported inhibition at 0.1 µM
Give the quantity in %, number only.

Recorded results for 5 molecules are shown here.
# molecule, inhibition at 0.1 µM, %
rows = [
    ("CCN1CCN(c2nccc3ccccc23)CC1", 57.3),
    ("Cc1ccc2ccnc(N3CCN(C)CC3)c2c1", 90.6),
    ("c1cc2occc2c(N2CCN3CCCCC3C2)n1 (centres unmarked)", 33.7),
    ("COc1ccc2c(N3CCNCC3)nccc2c1", 42.9),
    ("c1cc2occc2c(N2CCN3CCC[C@H]3C2)n1", 72.7),
]

stdin: Please report the recorded inhibition at 0.1 µM for CN1CCN(c2nccc3sccc23)CC1 .
stdout: 78.3

stdin: Please report the recorded inhibition at 0.1 µM for CN1CCN(c2nccc3sc(Br)cc23)CC1 .
stdout: 98.5

stdin: I have this molecule here, Cc1cc2c(N3CCN4CCC[C@@H]4C3)nccc2o1 , and I need its recorded inhibition at 0.1 µM.
stdout: 82
